# tested target: P. falciparum apicoplast DNA polymerase (Pf-apPOL) (Plasmodium falciparum, UniProt Q8ILY1)
# Sequence (Q8ILY1 entry or part of it): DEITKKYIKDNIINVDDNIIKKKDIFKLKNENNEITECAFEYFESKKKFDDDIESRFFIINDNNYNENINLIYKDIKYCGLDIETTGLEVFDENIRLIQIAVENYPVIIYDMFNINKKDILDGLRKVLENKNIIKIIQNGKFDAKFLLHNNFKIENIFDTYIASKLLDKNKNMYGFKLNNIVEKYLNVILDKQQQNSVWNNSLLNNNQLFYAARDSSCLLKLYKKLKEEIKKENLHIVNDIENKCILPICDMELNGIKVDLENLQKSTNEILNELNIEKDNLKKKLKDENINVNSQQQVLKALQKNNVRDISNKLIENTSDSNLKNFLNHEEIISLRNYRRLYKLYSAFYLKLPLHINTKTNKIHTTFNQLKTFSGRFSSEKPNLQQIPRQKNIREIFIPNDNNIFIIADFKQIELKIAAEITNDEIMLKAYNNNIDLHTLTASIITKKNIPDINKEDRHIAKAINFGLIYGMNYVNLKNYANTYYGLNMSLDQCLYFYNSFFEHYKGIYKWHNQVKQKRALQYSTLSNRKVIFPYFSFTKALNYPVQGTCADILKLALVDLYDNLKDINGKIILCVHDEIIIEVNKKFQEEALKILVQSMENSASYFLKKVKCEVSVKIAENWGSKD
# measurement description: Fluorescence-based high-throughput DNA polymerase assay (molecular beacon), primary screen and dose-response;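 note: test concentration in µM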
# Assay type: biochemical
# experimental setup: DRC-1; 180'; concentration 80
measurement name: % inhibition apPOL 180' (%)
Only the number, expressed in %, is required.

Query CCCCC(=O)N1CCc2c(nc3cc(-c4ccccc4Cl)[nH]n3c2=O)C1 on P. falciparum apicoplast DNA polymerase (Pf-apPOL) (Plasmodium falciparum, UniProt Q8ILY1); % inhibition apPOL 180' returned: 72.7607

Query O=C(Nc1c2c(nn1-c1ccc(Oc3ccccc3)cc1)CSC2)c1ccco1 on P. falciparum apicoplast DNA polymerase (Pf-apPOL) (Plasmodium falciparum, UniProt Q8ILY1); % inhibition apPOL 180' returned: 82.6026

Query O=C(NNC(=O)c1ccc(Cl)cc1)C(=O)NNC(=O)c1ccc(Cl)cc1 on P. falciparum apicoplast DNA polymerase (Pf-apPOL) (Plasmodium falciparum, UniProt Q8ILY1); % inhibition apPOL 180' returned: 64.4119

Query Cc1cccc2c(C(=O)NC(C)C)cc(N(C)C)nc12 on P. falciparum apicoplast DNA polymerase (Pf-apPOL) (Plasmodium falciparum, UniProt Q8ILY1); % inhibition apPOL 180' returned: 69.9021

Query CSC(C)C(=O)C=CN(C)C (stereo not drawn) on P. falciparum apicoplast DNA polymerase (Pf-apPOL) (Plasmodium falciparum, UniProt Q8ILY1); % inhibition apPOL 180' returned: 48.8803

Query COc1ccc(CNC(=O)Cn2nc3c(c2NC(=O)Cc2cccs2)CSC3)cc1 on P. falciparum apicoplast DNA polymerase (Pf-apPOL) (Plasmodium falciparum, UniProt Q8ILY1); % inhibition apPOL 180' returned: 66.9877

Query COc1ccc(NC(=O)Cn2ccc3c(=O)[nH]ccc32)cc1Cl [Molecule 10, COc1ccc(cc1Cl)NC(=O)Cn1ccc2c1cc[nH]c2=O] on P. falciparum apicoplast DNA polymerase (Pf-apPOL) (Plasmodium falciparum, UniProt Q8ILY1); % inhibition apPOL 180' returned: 84.9384

Query CN(C)C=C1SCc2ccccc2C1=O on P. falciparum apicoplast DNA polymerase (Pf-apPOL) (Plasmodium falciparum, UniProt Q8ILY1); % inhibition apPOL 180' returned: 43.5104

Query O=C(O)c1ccc(-c2nc3cc(-c4ccc5nc(-c6ccc(C(=O)O)cc6)[nH]c5c4)ccc3[nH]2)cc1 on P. falciparum apicoplast DNA polymerase (Pf-apPOL) (Plasmodium falciparum, UniProt Q8ILY1); % inhibition apPOL 180' returned: 81.7521

Query O=C(Cn1ccc2c(=O)[nH]ccc21)Nc1ccc(Cl)cc1 [Molecule 36, O=C(Cn1ccc2c1cc[nH]c2=O)Nc1ccc(cc1)Cl] on P. falciparum apicoplast DNA polymerase (Pf-apPOL) (Plasmodium falciparum, UniProt Q8ILY1); % inhibition apPOL 180' returned: 82.2877

Query CCCCCCCCCCCCCCCCCC(=O)CCN(C)C on P. falciparum apicoplast DNA polymerase (Pf-apPOL) (Plasmodium falciparum, UniProt Q8ILY1); % inhibition apPOL 180' returned: 80.1406

Query Oc1ccc(N=Nc2ccccc2)c(O)c1 on P. falciparum apicoplast DNA polymerase (Pf-apPOL) (Plasmodium falciparum, UniProt Q8ILY1); % inhibition apPOL 180' returned: 39.1474

Query Oc1cccc2ccc(/C=C/c3ccc4c(c3)OCO4)nc12 on P. falciparum apicoplast DNA polymerase (Pf-apPOL) (Plasmodium falciparum, UniProt Q8ILY1); % inhibition apPOL 180' returned: 82.4453

Query COc1ccc2c(c1)C(c1ccccc1OC)CC(=O)O2 (stereo not drawn) on P. falciparum apicoplast DNA polymerase (Pf-apPOL) (Plasmodium falciparum, UniProt Q8ILY1); % inhibition apPOL 180' returned: 96.2979

Query Cc1ccc(CCNC(=O)c2cnn3c(O)c(Cc4ccccc4F)c(C)nc23)cc1 on P. falciparum apicoplast DNA polymerase (Pf-apPOL) (Plasmodium falciparum, UniProt Q8ILY1); % inhibition apPOL 180' returned: 81.7781

Query O=C1c2ccccc2C(=O)N1Oc1ccc([N+](=O)[O-])c([N+](=O)[O-])c1 on P. falciparum apicoplast DNA polymerase (Pf-apPOL) (Plasmodium falciparum, UniProt Q8ILY1); % inhibition apPOL 180' returned: 66.4384

Query CC(C)(C)OC(=O)COc1ccc2cc(-c3ccccc3)c(=O)oc2c1 on P. falciparum apicoplast DNA polymerase (Pf-apPOL) (Plasmodium falciparum, UniProt Q8ILY1); % inhibition apPOL 180' returned: 64.7026

Query O=C(O)CC1SC(c2ccc3c(c2)OCO3)=NC1=O (stereo not drawn) on P. falciparum apicoplast DNA polymerase (Pf-apPOL) (Plasmodium falciparum, UniProt Q8ILY1); % inhibition apPOL 180' returned: 52.4762

Query COc1ccc(-c2cc(=O)c3cc(O)ccc3o2)cc1OC on P. falciparum apicoplast DNA polymerase (Pf-apPOL) (Plasmodium falciparum, UniProt Q8ILY1); % inhibition apPOL 180' returned: 84.0263

Query O=C1C(=Cc2ccccc2O)Oc2ccc(O)cc21 on P. falciparum apicoplast DNA polymerase (Pf-apPOL) (Plasmodium falciparum, UniProt Q8ILY1); % inhibition apPOL 180' returned: 79.2388

Query O=c1[nH]c2ccc([N+](=O)[O-])cc2c(-c2ccccc2)c1Sc1nc2ccccc2o1 on P. falciparum apicoplast DNA polymerase (Pf-apPOL) (Plasmodium falciparum, UniProt Q8ILY1); % inhibition apPOL 180' returned: 66.9195

Query O=c1cc(-c2ccccc2)oc2c(O)c(O)ccc12 on P. falciparum apicoplast DNA polymerase (Pf-apPOL) (Plasmodium falciparum, UniProt Q8ILY1); % inhibition apPOL 180' returned: 18.1576

Query O=C(Nc1nnc(-c2cccs2)o1)c1ccc([N+](=O)[O-])o1 on P. falciparum apicoplast DNA polymerase (Pf-apPOL) (Plasmodium falciparum, UniProt Q8ILY1); % inhibition apPOL 180' returned: 45.6773

Query O=[N+]([O-])c1cc2c(cc1CN1CCCCCC1)OCO2 on P. falciparum apicoplast DNA polymerase (Pf-apPOL) (Plasmodium falciparum, UniProt Q8ILY1); % inhibition apPOL 180' returned: 43.7361

Query COc1cccc(C(=O)N2CCc3c(nc4cc(-c5ccccc5)[nH]n4c3=O)C2)c1OC on P. falciparum apicoplast DNA polymerase (Pf-apPOL) (Plasmodium falciparum, UniProt Q8ILY1); % inhibition apPOL 180' returned: 78

Query O=[N+]([O-])c1ccc(/C=C/c2ccc3ccccc3n2)o1 on P. falciparum apicoplast DNA polymerase (Pf-apPOL) (Plasmodium falciparum, UniProt Q8ILY1); % inhibition apPOL 180' returned: 72.6505

Query COc1ccc(C(=O)N2CCc3c(nc4cc(-c5ccccc5Cl)[nH]n4c3=O)C2)cn1 on P. falciparum apicoplast DNA polymerase (Pf-apPOL) (Plasmodium falciparum, UniProt Q8ILY1); % inhibition apPOL 180' returned: 71

Query O=C1CCCC2=C1C(c1ccccn1)C1=C(CCCC1=O)O2 on P. falciparum apicoplast DNA polymerase (Pf-apPOL) (Plasmodium falciparum, UniProt Q8ILY1); % inhibition apPOL 180' returned: 68.1872

Query O=C(NNC(=O)C(F)(F)Sc1ccccc1)c1ccsc1 [Molecule 68, O=C(C(Sc1ccccc1)(F)F)NNC(=O)c1cscc1] on P. falciparum apicoplast DNA polymerase (Pf-apPOL) (Plasmodium falciparum, UniProt Q8ILY1); % inhibition apPOL 180' returned: 53.4351

Query CCOc1ccc(/C=C2\N=C(c3cc([N+](=O)[O-])cc([N+](=O)[O-])c3)OC2=O)cc1 on P. falciparum apicoplast DNA polymerase (Pf-apPOL) (Plasmodium falciparum, UniProt Q8ILY1); % inhibition apPOL 180' returned: 95.7221

Query O=C1N=C(Nc2cccc(Cl)c2Cl)S/C1=C\c1ccco1 [Molecule 3, O=C1N=C(S/C/1=C\c1ccco1)Nc1cccc(c1Cl)Cl] on P. falciparum apicoplast DNA polymerase (Pf-apPOL) (Plasmodium falciparum, UniProt Q8ILY1); % inhibition apPOL 180' returned: 71.4479

Query CS(=O)(=O)c1cccc(C(=O)Nc2nnc(-c3ccno3)o2)c1 on P. falciparum apicoplast DNA polymerase (Pf-apPOL) (Plasmodium falciparum, UniProt Q8ILY1); % inhibition apPOL 180' returned: 27.8767

Query O=C(Cc1cc(=O)[nH]c(SCc2ccccc2)n1)Nc1ccc2c(c1)OCO2 on P. falciparum apicoplast DNA polymerase (Pf-apPOL) (Plasmodium falciparum, UniProt Q8ILY1); % inhibition apPOL 180' returned: 77.2818
